Tested on: SK-LU-1
run description: relative viability (nuclei count vs DMSO), 5 days (fraction); higher = more cells survive
condition details: first compound 0.1581 µM
Reported relative viability is given for each of the following compounds.

>  <compound>
Nc1ccn([C@@H]2O[C@H](CO)[C@@H](O)[C@@H]2O)c(=O)n1 [Cytarabine] + C[C@]1(O)C[C@@H](c2nc(-c3ccc4ccc(-c5ccccc5)nc4c3)c3c(N)nccn32)C1 [Linsitinib] (partner 1 µM)

>  <relative viability>
0.476

$$$$

Suppose we examine the compound Nc1ccn([C@@H]2O[C@H](CO)[C@@H](O)[C@@H]2O)c(=O)n1 [Cytarabine] + Cc1cc(Nc2cc(N3CCN(C)CC3)nc(Sc3ccc(NC(=O)C4CC4)cc3)n2)n[nH]1 [Tozasertib] (partner 0.1 µM) ; what relative viability value has been reported?
0.185

Also COc1cc2nccc(Oc3ccc(NC(=O)Nc4cc(C)on4)c(Cl)c3)c2cc1OC [Tivozanib] + Cc1cc(Nc2cc(N3CCN(C)CC3)nc(Sc3ccc(NC(=O)C4CC4)cc3)n2)n[nH]1 [Tozasertib] (partner 0.1 µM) ?
0.357

Same again, this time with COc1cc2nccc(Oc3ccc(NC(=O)Nc4cc(C)on4)c(Cl)c3)c2cc1OC [Tivozanib] + C[C@]1(O)C[C@@H](c2nc(-c3ccc4ccc(-c5ccccc5)nc4c3)c3c(N)nccn32)C1 [Linsitinib] (partner 1 µM)
0.813

* * *

Test system: NCI-H460
run description: relative viability (nuclei count vs DMSO), 5 days (fraction); higher = more cells survive
condition details: first compound 0.1581 µM
reported endpoint: relative viability

>  <compound>
COc1cc2nccc(Oc3ccc(NC(=O)Nc4cc(C)on4)c(Cl)c3)c2cc1OC [Tivozanib] + COc1cccc2cc(-c3nc([C@H]4CC[C@H](C(=O)O)CC4)n4ncnc(N)c34)[nH]c12 [OSI-027] (partner 0.5 µM)

>  <result>
0.622

$$$$
>  <compound>
Nc1ccn([C@@H]2O[C@H](CO)[C@@H](O)[C@@H]2O)c(=O)n1 [Cytarabine] + Nc1nc2[nH]cc(CCc3ccc(C(=O)N[C@@H](CCC(=O)O)C(=O)O)cc3)c2c(=O)[nH]1 [Pemetrexed] (partner 0.2 µM)

>  <result>
0.0459

$$$$
>  <compound>
COc1cc2nccc(Oc3ccc(NC(=O)Nc4cc(C)on4)c(Cl)c3)c2cc1OC [Tivozanib] + COc1cc2c(Oc3ccc(NC(=O)C4(C(=O)Nc5ccc(F)cc5)CC4)cc3F)ccnc2cc1OCCCN1CCOCC1 [Foretinib] (partner 0.25 µM)

>  <result>
1.01

$$$$

# input compound: Nc1ccn([C@@H]2O[C@H](CO)[C@@H](O)[C@@H]2O)c(=O)n1 [Cytarabine] + Nc1ncn([C@H]2C[C@H](O)[C@@H](CO)O2)c(=O)n1 [Decitabine] (partner 2 µM) ; wanted: its relative viability
0.0621

* * *

Reported values of relative viability for individual entries
Test system: SK-LU-1
run description: relative viability (nuclei count vs DMSO), 5 days (fraction); higher = more cells survive
condition details: first compound 2.53 µM
Enter a number only.

Some solved cases for reference:
>  <compound>
O=c1[nH]c2ccccc2n1C1CCN(CCCC(c2ccc(F)cc2)c2ccc(F)cc2)CC1 [Pimozide] + Cc1nc(Nc2ncc(C(=O)Nc3c(C)cccc3Cl)s2)cc(N2CCN(CCO)CC2)n1 [Dasatinib] (partner 0.075 µM)

>  <reported endpoint>
relative viability

>  <result number>
0.186

$$$$
>  <compound>
Cc1cnc(-c2cnc(NCCNc3ccc(C#N)cn3)nc2-c2ccc(Cl)cc2Cl)[nH]1 + C[C@@H](Oc1cc(-c2cnn(C3CCNCC3)c2)cnc1N)c1c(Cl)ccc(F)c1Cl [Crizotinib] (partner 1 µM)

>  <reported endpoint>
relative viability

>  <result number>
1.3

$$$$
>  <compound>
O=c1[nH]c2ccccc2n1C1CCN(CCCC(c2ccc(F)cc2)c2ccc(F)cc2)CC1 [Pimozide] + Cc1nc(NC(=O)N2CCC[C@H]2C(N)=O)sc1-c1ccnc(C(C)(C)C(F)(F)F)c1 [Alpelisib] (partner 2 µM)

>  <reported endpoint>
relative viability

>  <result number>
0.719

$$$$

Now examine the next entry.
Give its relative viability value. Item: Cc1cnc(-c2cnc(NCCNc3ccc(C#N)cn3)nc2-c2ccc(Cl)cc2Cl)[nH]1 + CCNC(=O)c1noc(-c2cc(C(C)C)c(O)cc2O)c1-c1ccc(CN2CCOCC2)cc1 [Luminespib] (partner 0.01 µM)
0.213

* * *

System: NCI-H727
run description: relative viability (nuclei count vs DMSO), 5 days (fraction); higher = more cells survive
condition details: first compound 0.04 µM
Mark True only for relative viability values smaller than 0.5; exact matches and larger values are False.

// known answers, use as guide
>  <molecule>
Cc1sc2c(c1C)C(c1ccc(Cl)cc1)=N[C@@H](CC(=O)OC(C)(C)C)c1nnc(C)n1-2 [JQ1] + Nc1ncn([C@H]2C[C@H](O)[C@@H](CO)O2)c(=O)n1 [Decitabine] (partner 2 µM)

>  <answer label>
False

$$$$
>  <molecule>
Cc1sc2c(c1C)C(c1ccc(Cl)cc1)=N[C@@H](CC(=O)OC(C)(C)C)c1nnc(C)n1-2 [JQ1] + O=C(c1cc(Cc2n[nH]c(=O)c3ccccc23)ccc1F)N1CCN(C(=O)C2CC2)CC1 [Olaparib] (partner 8 µM)

>  <answer label>
False

$$$$
>  <molecule>
Cc1sc2c(c1C)C(c1ccc(Cl)cc1)=N[C@@H](CC(=O)OC(C)(C)C)c1nnc(C)n1-2 [JQ1] + Cc1cc(Nc2cc(N3CCN(C)CC3)nc(Sc3ccc(NC(=O)C4CC4)cc3)n2)n[nH]1 [Tozasertib] (partner 0.1 µM)

>  <answer label>
False

$$$$
>  <molecule>
Cc1sc2c(c1C)C(c1ccc(Cl)cc1)=N[C@@H](CC(=O)OC(C)(C)C)c1nnc(C)n1-2 [JQ1] + Cc1nc(Nc2ncc(C(=O)Nc3c(C)cccc3Cl)s2)cc(N2CCN(CCO)CC2)n1 [Dasatinib] (partner 0.075 µM)

>  <answer label>
True

$$$$
>  <molecule>
Cc1sc2c(c1C)C(c1ccc(Cl)cc1)=N[C@@H](CC(=O)OC(C)(C)C)c1nnc(C)n1-2 [JQ1] + CC(=O)c1c(C)c2cnc(Nc3ccc(N4CCNCC4)cn3)nc2n(C2CCCC2)c1=O [Palbociclib] (partner 0.5 µM)

>  <answer label>
False

$$$$

Input Cc1sc2c(c1C)C(c1ccc(Cl)cc1)=N[C@@H](CC(=O)OC(C)(C)C)c1nnc(C)n1-2 [JQ1] + CS(=O)(=O)N1CCN(Cc2cc3nc(-c4cccc5[nH]ncc45)nc(N4CCOCC4)c3s2)CC1 [Pictilisib] (partner 1 µM) ; condition: relative viability strictly below 0.5. Does it hold?
True

* * *

Test system: NCI-H522
run description: relative viability (nuclei count vs DMSO), 5 days (fraction); higher = more cells survive
condition details: first compound 0.1265 µM
reported endpoint: relative viability
Just the number, please, no unit after it.

>  <compound>
Cc1sc2c(c1C)C(c1ccc(Cl)cc1)=N[C@@H](CC(=O)OC(C)(C)C)c1nnc(C)n1-2 [JQ1] + Nc1ncn([C@H]2C[C@H](O)[C@@H](CO)O2)c(=O)n1 [Decitabine] (partner 2 µM)

>  <relative viability>
0.635

$$$$
>  <compound>
Cc1sc2c(c1C)C(c1ccc(Cl)cc1)=N[C@@H](CC(=O)OC(C)(C)C)c1nnc(C)n1-2 [JQ1] + CC(=O)Nc1cccc(-n2c(=O)n(C3CC3)c(=O)c3c(Nc4ccc(I)cc4F)n(C)c(=O)c(C)c32)c1 [Trametinib] (partner 0.02 µM)

>  <relative viability>
0.631

$$$$
>  <compound>
Cc1sc2c(c1C)C(c1ccc(Cl)cc1)=N[C@@H](CC(=O)OC(C)(C)C)c1nnc(C)n1-2 [JQ1] + CC(=O)c1c(C)c2cnc(Nc3ccc(N4CCNCC4)cn3)nc2n(C2CCCC2)c1=O [Palbociclib] (partner 0.5 µM)

>  <relative viability>
0.881

$$$$

Any idea what its relative viability is? The compound is Cc1sc2c(c1C)C(c1ccc(Cl)cc1)=N[C@@H](CC(=O)OC(C)(C)C)c1nnc(C)n1-2 [JQ1] + NC(=O)Nc1cc(-c2cccc(F)c2)sc1C(=O)N[C@H]1CCCNC1 [AZD7762] (partner 0.2 µM)
0.685

What do you have for Cc1sc2c(c1C)C(c1ccc(Cl)cc1)=N[C@@H](CC(=O)OC(C)(C)C)c1nnc(C)n1-2 [JQ1] + COc1cccc2cc(-c3nc([C@H]4CC[C@H](C(=O)O)CC4)n4ncnc(N)c34)[nH]c12 [OSI-027] (partner 0.5 µM) ?
0.556

* * *

Each entry below lists one item and its recorded relative viability value.
Test system: COR-L 105
run description: relative viability (nuclei count vs DMSO), 5 days (fraction); higher = more cells survive
condition details: first compound 15.81 µM
Please reply with the number alone, leaving off any unit.

The following compounds have reported results that may help.
>  <compound>
O=C(O)CCCCC(CCSCc1ccccc1)SCc1ccccc1 (centres undefined) [CPI-613] + COc1cc2c(Oc3ccc(NC(=O)C4(C(=O)Nc5ccc(F)cc5)CC4)cc3F)ccnc2cc1OCCCN1CCOCC1 [Foretinib] (partner 0.25 µM)

>  <relative viability>
1.03

$$$$
>  <compound>
O=C(O)CCCCC(CCSCc1ccccc1)SCc1ccccc1 (centres undefined) [CPI-613] + Cc1nc(Nc2ncc(C(=O)Nc3c(C)cccc3Cl)s2)cc(N2CCN(CCO)CC2)n1 [Dasatinib] (partner 0.075 µM)

>  <relative viability>
0.285

$$$$
>  <compound>
O=C(O)CCCCC(CCSCc1ccccc1)SCc1ccccc1 (centres undefined) [CPI-613] + C[C@]1(O)C[C@@H](c2nc(-c3ccc4ccc(-c5ccccc5)nc4c3)c3c(N)nccn32)C1 [Linsitinib] (partner 1 µM)

>  <relative viability>
0.77

$$$$
>  <compound>
O=C(O)CCCCC(CCSCc1ccccc1)SCc1ccccc1 (centres undefined) [CPI-613] + CC(=O)Nc1cccc(-n2c(=O)n(C3CC3)c(=O)c3c(Nc4ccc(I)cc4F)n(C)c(=O)c(C)c32)c1 [Trametinib] (partner 0.02 µM)

>  <relative viability>
0.437

$$$$
>  <compound>
O=C(O)CCCCC(CCSCc1ccccc1)SCc1ccccc1 (centres undefined) [CPI-613] + Nc1nc2[nH]cc(CCc3ccc(C(=O)N[C@@H](CCC(=O)O)C(=O)O)cc3)c2c(=O)[nH]1 [Pemetrexed] (partner 0.2 µM)

>  <relative viability>
1.02

$$$$
>  <compound>
O=C(O)CCCCC(CCSCc1ccccc1)SCc1ccccc1 (centres undefined) [CPI-613] + Cc1nc(NC(=O)N2CCC[C@H]2C(N)=O)sc1-c1ccnc(C(C)(C)C(F)(F)F)c1 [Alpelisib] (partner 2 µM)

>  <relative viability>
1.11

$$$$
>  <compound>
O=C(O)CCCCC(CCSCc1ccccc1)SCc1ccccc1 (centres undefined) [CPI-613] + O=C(CCCCCCC(=O)Nc1ccccc1)NO [Vorinostat] (partner 1 µM)

>  <relative viability>
0.675

$$$$
>  <compound>
O=C(O)CCCCC(CCSCc1ccccc1)SCc1ccccc1 (centres undefined) [CPI-613] + CC(=O)c1c(C)c2cnc(Nc3ccc(N4CCNCC4)cn3)nc2n(C2CCCC2)c1=O [Palbociclib] (partner 0.5 µM)

>  <relative viability>
0.441

$$$$

Next compound, please.
Any idea what relative viability was measured for O=C(O)CCCCC(CCSCc1ccccc1)SCc1ccccc1 (centres undefined) [CPI-613] + Cc1cc(Nc2cc(N3CCN(C)CC3)nc(Sc3ccc(NC(=O)C4CC4)cc3)n2)n[nH]1 [Tozasertib] (partner 0.1 µM) ?
0.348

Provenance of the data: the supplement of paper PMC10307832
